- System: Pa03C
- TEST METHOD NOTES: 3D tumor spheroid culture growth (fluorescence intensity)
- CONDITIONS USED: read-out: LC50; 3D Cultures, Tumor Alone, Pa03C, D12 curves
Consider the following compounds; for each one, report its CC50.

Checklist item: CC50 tested on Pa03C, entry CCCCCCCCC/C(=C\C1=C(C)C(=O)C(OC)=C(OC)C1=O)C(=O)O , value? 37.9 µM

And the next one, CCC/C(=C\C1=C(OC)C(=O)c2ccccc2C1=O)C(=O)N(CC)CC ? 6.9 µM

And the next one, NS(=O)(=O)c1ccc(NC(=O)Nc2ccc(F)cc2)cc1 [SLC-0111, reference compound] ? 51.9 µM

###

- Tested on: Panc10.05
MEASURE: CC50 (nM)
The figure you give is taken to be in nM; do not add the unit.

Checklist item: CC50 tested on Panc10.05, entry CCC/C(=C\C1=C(OC)C(=O)c2ccccc2C1=O)C(=O)NOC , value? 300

###

- Test system: Panc10.05
- TEST METHOD NOTES: Monolayer cytotoxicity under hypoxia (alamarBlue)
- Assay type: cell-based
- CONDITIONS USED: Panc10.05, N = 3, read-out: LC50 (the source's name)
MEASURE: CC50

I am curious: what CC50 value has been reported for CCC/C(=C\C1=C(OC)C(=O)c2ccccc2C1=O)C(=O)NOC [APX2014] ? 1300 nM
